# Assayed System: T1, human galectin-10-His (recombinant human galectin-10 with TEV-cleavable N-terminal His-tag) (human)
# T1 construct: SEC-MALLS: dimer in solution; also called Gal10-His; humanGal10-His
# T1 chain: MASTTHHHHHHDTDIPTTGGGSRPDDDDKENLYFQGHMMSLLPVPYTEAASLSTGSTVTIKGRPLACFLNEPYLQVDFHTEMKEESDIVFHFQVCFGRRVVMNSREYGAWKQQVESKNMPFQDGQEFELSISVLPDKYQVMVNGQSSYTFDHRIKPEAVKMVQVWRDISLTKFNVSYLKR
# Method: ELISA, mouse IgG1 on coated galectin-10-His (0.2 ug/mL)
Note to self: values exactly at 2 OD are 1 (yes). So Bmax at or above 2 OD is 1 (yes), below is 0 (no).

Worked cases, answers included:
Exercise: Quick check, Bmax >= 2 OD? 1D11 mouse IgG1 (antibody, V domains shown, VH on mouse IgG1 heavy chain constant domains (CH1-CH2-CH3), VL on mouse lambda light chain constant domain; also called 1D011; 1D11 mIgG1) VH: QVQLVESGGGLVQPGGSLRLSCAASGFTFDDYAMSWVRQAPGKGLEWVSGISWNGGSTYYAESMKGRFTISRDNAKNTLYLQMNSLKSEDTAVYYCAKDRNLGYRLGYPYDYWGQGTQVTVSS VL: QSVLTQPPSVSGSPGETVTISCAGTSSDVGYGNYVSWYQQLPGMAPRLLIYEVNKRASGITDRFSGSKSGNTASLTISGLQSEDEGDYYCASYRSSNNAVFGGGTHLTVL
Solution: 0 (no)

Exercise: Quick check, Bmax >= 2 OD? 2F09 mouse IgG1 (antibody, V domains shown, VH on mouse IgG1 heavy chain constant domains (CH1-CH2-CH3), VL on mouse lambda light chain constant domain; also called 2F09 mIgG1) VH: QVQVQESGPGLVKPSQTLSLTCTVSGGSITTNYFYWSWIRQSPGKGLEWIGAIAYSGRTYYSPSLKSRTSISRDTSNNQFTLQLSSVTPEDTAVYYCARGPKGLASYYDYWGQGTQVTVSS VL: SSALTQPSAVSVSLGQTARITCQGGNFGYYYVSWYQQKPGQAPVLVIYRDSGRPSGIPERFSGSSSGDTATLTISGAQAEDEADYYCQSGSSSDNTVFGGGTHLTVL
Solution: 1 (yes)

Exercise: Quick check, Bmax >= 2 OD? 4E08 mouse IgG1 (antibody, V domains shown, VH on mouse IgG1 heavy chain constant domains (CH1-CH2-CH3), VL on mouse lambda light chain constant domain; also called 4E8; 4E08 mIgG1) VH: QVQRQESGPGLVKPSQTLSLTCTVSGGSITTSYYAWSWIRQPPGKGLEWMGVIASDGSTYYSPSLKSRTSISRDTSKNQFSLQLSSVTPEDTAVYYCALYIRGSSWSGWSAYDYWGQGTQVTVSS VL: QPVLNQPSAVSVSLGQTARITCQGGNFGYYYGSWYQQKPGQAPVLVIYKDSERPSGIPERFSGSSSGGTATLTISRAQAEDEADYYCQSADSSDNPVFGGGTHLTVL
Solution: 1 (yes)

Continuing:
Exercise: Quick check, Bmax >= 2 OD? 6A08 mouse IgG1 (antibody, V domains shown, also called 6A08 mIgG1) VH: QVQLVESGGGLVQPGGSLRLSCAASGFTFSSYAMSWVRQAPGKGPEWVSAINRGGGSTYYADSVKGRFTISRDNAKNTLYLQMNSLKPEDAAVYYCATPGDRLWYYRYDYWGQGAQVTVSS VL: QTVVTQEPSLSVSPGGTVTLTCGLSSGSVTSSNYPGWYQQTPGQAPRLLIYNTNSRYSGVPNRFSGSISGNKAALIISGAQPEDEADYHCALNRVRGTYRVFGGGTHLTVL
Solution: 1 (yes)

Exercise: Quick check, Bmax >= 2 OD? 6E10 mouse IgG1 (antibody, V domains shown, also called 6E010; 6E10 mIgG1) VH: QLQLVESGGGLVQPGGSLRLSCAASGFTFSSYWMYWVRQAPGKGLEWVSAINTGGGSTYYADSVKGRFTISRDNAKNTLYLQMNSLKPEDTALYYCARAGSGVAGTGYDYWGQGTQVTVSS VL: QPVLNQPSAVSVSLGQTARITCQGGNFGYYYVSWYQQKPGQAPVLVIYRDSGRPSGIPERFSGSSSGDTATLTISGAQAEDEADYYCQSGSSSDNAVFGGGTHLTVL
Solution: 1 (yes)

Exercise: Quick check, Bmax >= 2 OD? 2C07 mouse IgG1 (antibody, V domains shown, VH on mouse IgG1 heavy chain constant domains (CH1-CH2-CH3), VL on mouse lambda light chain constant domain; also called 2C07 mIgG1) VH: ELQLVESGGGLVQPGGSLRLSCAASGFTFSSYAMSWVRQAPGKGLEWVSNINSGGGSTGYADSVKGRFTISRDNAKNTLYLQMNSLKPEDMAVYYCAKYLRTYYPNAAFGMDYWGKGTLVTVSS VL: QAVLTQPSAVSVSLGQTARITCQGGNFGRYYASWYQQKPGQAPVLVIYRDSERPSGIPERFSGSSSGDTATLTISGAQAEDEADYYCQSGRSSDNAVFGGGTHLTGL
Solution: 1 (yes)

Exercise: Quick check, Bmax >= 2 OD? 6B06 mouse IgG1 (antibody, V domains shown, also called 6B06 mIgG1) VH: QVQRQESGPGLVKPSQTLSLTCTVSGGSITTNYYSWSWIRQPPGKGLEWIGYIAYSGSTSYSPSLKSRTSISRDTSNNQFSLQLSSVTPEDTAVYYCARSRSSPTTFGMDYWGKGTLVTVSS VL: SSALTQPSAVSVSLGQTARITCQGGNFGRYYVSWYTQKPGQAPVLVIYQDSERPTGIPERFSGSSSGDTATLTISGAQAEDEADYYCQSGTSSDNIVFGGGTHLTVL
Solution: 1 (yes)

Exercise: Quick check, Bmax >= 2 OD? 6A05 mouse IgG1 (antibody, V domains shown, also called 6A05 mIgG1) VH: EVQLVESGGGLVQPGGSLRLSCAASGFTFSSYAMSWVRQAPGKGLEWVSAINSGGGWTSYVDSVKGRFTISRDNAKNTLYLQMDSLKPEDTAVYYCTKYSGPELNTQYGMDYWGKGTLVTVSS VL: NFMLTQPSAVSVSLGQTARITCQGGNFGSYYASWYQQKPGQAPVLVIYRDSGRPSGIPERFSGSSSGDTATLTISGAQAEDEADYYCQSGSSSDNTVFGGGTHLTVL
Solution: 0 (no)

Exercise: Quick check, Bmax >= 2 OD? 1C09 mouse IgG1 (antibody, V domains shown, VH on mouse IgG1 heavy chain constant domains (CH1-CH2-CH3), VL on mouse lambda light chain constant domain; also called 1C09 mIgG1) VH: QVQLVESGPGLVKPSQTLSLTCTVSGGSITTNSYYWSWIRQPPGKGLEWMGAIAYSGSTYYSPSLKSRTSISRDTSKNQFTLHLSSVTPEDTAVYYCARRPNWYRALDAWGQGTLVTVSS VL: NFMLTQPSAVSVSLGQTARITCQGANLGRYYGIWYQQKPGQAPVQVIYGDSNRPSGIPERFSGSSSGGTATLTISGAQAEDEADYYCQSYESSTSPVFGGGTHLTVL
Solution: 1 (yes)

Exercise: Quick check, Bmax >= 2 OD? 6F06 mouse IgG1 (antibody, V domains shown, also called 6F06 mIgG1) VH: QVQLVESGGGLVQPGGSLRLSCAASEFTFSRYSMSWVRQAPGKGLEWVSTINSGGGSTSYVDSVKGRFTISRDNAKNTLYLQMNSLKPEDTAVYYCTKSQGGISFSTQYGMDYWGKGTLVTVSS VL: NFMLTQPSAVSVSLGQTARITCQGGNFGRYYANWYQQKPGQAPVLVIYKDSERPSGIPERFSGSSSGDTATLTISGAQAEDESDYYCQSGSVSDNAVFGGGTHLAVL
Solution: 1 (yes)
